Hello, the source for this data is ChEMBL document CHEMBL3885861, in case you need it.

# Species on record: Rattus norvegicus
# assay.protocol: Open TG-GATES - Regimen: Single
# Format: toxicity, organism-based, Sprague-Dawley
# Design: regimen Single, gender Male, age 6 weeks
# experimental.setup: in vivo, po, 0 mg/kg, 3 h, tissue Plasma, route gavage, dose level Control
experimental.endpoint: Cl
Answers without a unit are incomplete; give the number and then its unit.

Known Cl results, listed for orientation:
// lookup Cl for CCCNC(=O)NS(=O)(=O)c1ccc(Cl)cc1 [CHLORPROPAMIDE]
106 meq/L

// lookup Cl for CCOC(=O)CCC(=O)O[C@H]1[C@H](O[C@@H]2[C@@H](C)[C@H](O[C@H]3C[C@@](C)(OC)[C@@H](O)[C@H](C)O3)[C@@H](C)C(=O)O[C@H](CC)[C@@](C)(O)[C@H](O)[C@@H](C)C(=O)[C@H](C)C[C@@]2(C)O)O[C@H](C)C[C@@H]1N(C)C [ERYTHROMYCIN ETHYLSUCCINATE]
103.2 meq/L

// lookup Cl for CCOc1ccc(NC(=O)CC(C)O)cc1 (centres undefined)
105.2 meq/L

// lookup Cl for NC(N)=Nc1nc(CSCCC(N)=NS(N)(=O)=O)cs1
103.2 meq/L

// lookup Cl for O=C(CCCN1CCC(O)(c2ccc(Cl)cc2)CC1)c1ccc(F)cc1
105 meq/L

// lookup Cl for CN(C)CCN(Cc1cccs1)c1ccccn1
107.4 meq/L

---
// lookup Cl for C[C@@H]1C[C@H]2[C@@H]3CCC4=CC(=O)C=C[C@]4(C)[C@@]3(F)[C@@H](O)C[C@]2(C)[C@@]1(O)C(=O)CO
103.4 meq/L

// lookup Cl for CC/C(=C(\c1ccccc1)c1ccc(OCCN(C)C)cc1)c1ccccc1
106.8 meq/L

// lookup Cl for Cc1ccc(C)c(OCCCC(C)(C)C(=O)O)c1
105 meq/L

----------
# Species: Rattus norvegicus
# assay.protocol: Open TG-GATES - Regimen: Daily Repeat
# Type: toxicity, organism-based, Sprague-Dawley
# Set-up: regimen Daily Repeat, gender Male, age 6 weeks
# experimental.setup: in vivo, po, 1000 mg/kg, […], tissue Plasma, route gavage, dose level High, time 28 day
experimental.endpoint: IP

Known IP results, listed for orientation:
// lookup IP for NC(N)=Nc1nc(CSCCC(N)=NS(N)(=O)=O)cs1
7 mg/dL

// lookup IP for CC(C)OC(=O)C(C)(C)Oc1ccc(C(=O)c2ccc(Cl)cc2)cc1 [FENOFIBRATE]
7.3 mg/dL

// lookup IP for CCOc1ccc(NC(=O)CC(C)O)cc1 (stereo unspecified)
6.5 mg/dL

// lookup IP for COC1=CC(=O)C[C@@H](C)[C@]12Oc1c(Cl)c(OC)cc(OC)c1C2=O
7.3 mg/dL

// lookup IP for COc1ccc2[nH]c([S+]([O-])Cc3ncc(C)c(OC)c3C)nc2c1 (stereo unspecified)
6.9 mg/dL

Field: next molecule
// lookup IP for CCOC(=O)CCC(=O)O[C@H]1[C@H](O[C@@H]2[C@@H](C)[C@H](O[C@H]3C[C@@](C)(OC)[C@@H](O)[C@H](C)O3)[C@@H](C)C(=O)O[C@H](CC)[C@@](C)(O)[C@H](O)[C@@H](C)C(=O)[C@H](C)C[C@@]2(C)O)O[C@H](C)C[C@@H]1N(C)C [ERYTHROMYCIN ETHYLSUCCINATE]
6.9 mg/dL
